Measured on: PKC delta kinase (Homo sapiens, UniProt Q05655)
Sequence (Q05655 whole entry): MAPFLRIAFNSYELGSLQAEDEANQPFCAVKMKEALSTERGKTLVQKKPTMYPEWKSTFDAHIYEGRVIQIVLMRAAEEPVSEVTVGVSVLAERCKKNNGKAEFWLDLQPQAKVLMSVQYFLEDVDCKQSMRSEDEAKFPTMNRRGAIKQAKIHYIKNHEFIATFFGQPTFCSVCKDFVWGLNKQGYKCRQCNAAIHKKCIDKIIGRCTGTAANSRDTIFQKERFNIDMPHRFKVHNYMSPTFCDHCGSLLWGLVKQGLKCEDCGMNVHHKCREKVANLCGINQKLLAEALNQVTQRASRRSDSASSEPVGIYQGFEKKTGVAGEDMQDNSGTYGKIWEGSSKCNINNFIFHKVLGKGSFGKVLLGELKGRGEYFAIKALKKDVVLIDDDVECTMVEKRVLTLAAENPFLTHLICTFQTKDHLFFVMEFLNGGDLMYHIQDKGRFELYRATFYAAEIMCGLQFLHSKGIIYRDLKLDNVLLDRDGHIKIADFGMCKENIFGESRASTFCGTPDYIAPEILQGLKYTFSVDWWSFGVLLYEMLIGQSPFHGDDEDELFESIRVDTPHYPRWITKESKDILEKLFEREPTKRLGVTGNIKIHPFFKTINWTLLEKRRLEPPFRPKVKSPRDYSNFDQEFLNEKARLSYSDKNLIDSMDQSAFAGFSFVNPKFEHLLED
Test method notes: PKC delta kinase inhibition, coupled-enzyme (NADH absorbance) assay, Ki
Format: biochemical
Condition label: 150 μM ATP, 46 nM PKC delta kinase, 30° C.; read-out: Ki PKC delta
pKi: −log10 of the molar value.
Recorded metric: pKi

For orientation, consider the following solved cases.
N[C@@H]1CCN(c2cccc(-c3n[nH]c4ncccc34)n2)C1 [Compound 33] :: > 5.55
CC(C)C(C)(O)[C@H]1CCCN(c2ccc(F)c(-c3n[nH]c4ncccc34)n2)C1 (some centres unmarked) [Compound 277] :: < 5.90
NCC1CCN(c2ccc(C(F)(F)F)c(-c3n[nH]c4ncccc34)n2)CC1 [Compound 127] :: < 5.90
FC(F)(F)c1ccc(N2CCNC(c3cccc(Cl)c3)C2)nc1-c1n[nH]c2ncccc12 (centres unmarked) [Compound 170] :: > 5.55

[in] Quick one: pKi of CC(C)CC1CN(c2ccc(C(F)(F)F)c(-c3n[nH]c4ncccc34)n2)CCC1C#N (centres unmarked) [Compound 337] ?
[out] < 5.90

[in] Quick one: pKi of CC(C)(C)C1CN(c2ccc(F)c(-c3n[nH]c4ncccc34)n2)CCN1 (centres unmarked) [Compound 197] ?
[out] > 6.30

[in] Quick one: pKi of CC(C)(O)[C@H]1CN(c2cccc(-c3n[nH]c4ncccc34)n2)CCN1 [Compound 136] ?
[out] > 6.30

[in] Quick one: pKi of NC[C@@H]1CCN(c2ccc(C(F)(F)F)c(-c3n[nH]c4ncccc34)n2)C1 [Compound 353] ?
[out] < 5.90

---

As an illustration, consider measured pKi for molecules on PKC alpha kinase (Homo sapiens, UniProt P17252).
pKi: −log10 of the molar value.

For orientation, consider the following solved cases.
CC(C)CC1(CN)CN(c2ccc(C(F)(F)F)c(-c3n[nH]c4ncccc34)n2)C1 :: < 5.90
CC(C)C(N)C1CCCN(c2ccc(F)c(-c3n[nH]c4ncccc34)n2)C1 (stereo not drawn) :: > 5.55

Here's the next entry for you.
[in] Give PKC alpha kinase (Homo sapiens, UniProt P17252) pKi for CC(C)C(F)(F)C1CN(c2cccc(-c3n[nH]c4ncccc34)n2)CCN1 (stereo not drawn)
[out] < 5.90

---

pKi: −log10 of the molar value.
As an illustration, consider measured pKi for compounds on PKC theta kinase (Homo sapiens).

CCC1(CN)CN(c2ccc(C(F)(F)F)c(-c3n[nH]c4ncccc34)n2)CCO1 (stereo not shown) :: > 7.30
NCC1CCN(c2ccc(C(F)(F)F)c(-c3n[nH]c4ncccc34)n2)CC1 :: < 6.15
CCCC1CN(c2ccc(C(F)(F)F)c(-c3n[nH]c4ncccc34)n2)CCN1 (stereo not shown) :: > 7.30
CC(C)(F)C(N)C1CCCN(c2ccc(F)c(-c3n[nH]c4ncccc34)n2)C1 (stereo not shown) :: > 7.30
CC(C)C(O)C1CN(c2ccc(F)c(-c3n[nH]c4ncccc34)n2)CCN1 (stereo not shown) :: > 7.30
N#CCCC1CN(c2ccc(C(F)(F)F)c(-c3n[nH]c4ncccc34)n2)CCC1O (stereo not shown) :: > 6.30
CC(C)(C(N)C1CCCN(c2ccc(F)c(-c3n[nH]c4ncccc34)n2)C1)C(F)(F)F (stereo not shown) [Compound 390] :: > 7.30
CC(C)CC1(C)CN(c2nc(-c3n[nH]c4ncccc34)ccc2F)CCN1 (stereo not shown) :: > 7.30
Fc1ccc(N2CCN[C@@H](CC3CC3)C2)nc1-c1n[nH]c2ncccc12 :: > 7.30
CC(O)(C1CC1)C1CN(c2ccc(F)c(-c3n[nH]c4ncccc34)n2)CCN1 (stereo not shown) :: > 7.30

[in] Give PKC theta kinase (Homo sapiens) pKi for CCC(C)(C)C(N)C1CCCN(c2ccc(F)c(-c3n[nH]c4ncccc34)n2)C1 (stereo not shown) [Compound 379]
[out] > 6.30

[in] Give PKC theta kinase (Homo sapiens) pKi for FC(F)(F)c1ccc(N2CCNC(c3ccccc3)C2)nc1-c1n[nH]c2ncccc12 (stereo not shown)
[out] > 7.30

[in] Give PKC theta kinase (Homo sapiens) pKi for NCC1CN(c2ccc(F)c(-c3n[nH]c4ncccc34)n2)C1
[out] > 6.30

[in] Give PKC theta kinase (Homo sapiens) pKi for CC(C)C(N)C1CN(c2ccc(C(F)(F)F)c(-c3n[nH]c4ncccc34)n2)CCO1 (stereo not shown)
[out] > 6.30

[in] Give PKC theta kinase (Homo sapiens) pKi for Fc1ccc(N2CCC3(CCNC3)C2)nc1-c1n[nH]c2ncccc12 (stereo not shown)
[out] < 6.15

[in] Give PKC theta kinase (Homo sapiens) pKi for CCC(N)C1(C(F)(F)F)CCN(c2ccc(F)c(-c3n[nH]c4ncccc34)n2)C1 (stereo not shown)
[out] < 6.15

[in] Give PKC theta kinase (Homo sapiens) pKi for C=C(F)c1cc(-c2n[nH]c3ncccc23)nc(N2CCNCC2)c1
[out] > 6.30

[in] Give PKC theta kinase (Homo sapiens) pKi for CC(C)C(N)C1CCCN(c2ccc(F)c(-c3n[nH]c4ncccc34)n2)C1 (stereo not shown)
[out] > 7.30

[in] Give PKC theta kinase (Homo sapiens) pKi for CCC[C@H]1CN(c2ccc(C(F)(F)F)c(-c3n[nH]c4ncccc34)n2)CC(F)(F)CN1
[out] < 6.15

[in] Give PKC theta kinase (Homo sapiens) pKi for CC(C)CC1(CN)CCN(c2ccc(C(F)(F)F)c(-c3n[nH]c4ncccc34)n2)CC1
[out] > 6.30

[in] Give PKC theta kinase (Homo sapiens) pKi for N#CC1CCN(c2ccc(F)c(-c3n[nH]c4ncccc34)n2)CC1
[out] < 6.15

[in] Give PKC theta kinase (Homo sapiens) pKi for NC(=O)C1CCCN(c2ccc(F)c(-c3n[nH]c4ncccc34)n2)C1 (stereo not shown)
[out] < 6.15

---

Measured on: PKC delta kinase (Homo sapiens, UniProt Q05655)
Test method notes: PKC delta kinase inhibition, coupled-enzyme (NADH absorbance) assay, Ki
Format: biochemical
Condition label: 150 μM ATP, 46 nM PKC delta kinase, 30° C.; read-out: Ki PKC delta
pKi: −log10 of the molar value.
Recorded metric: pKi

For orientation, consider the following solved cases.
CC(C)[C@H]1CN(c2ccc(C(F)(F)F)c(-c3n[nH]c4ncccc34)n2)CCN1 [Compound 98] :: < 5.70
c1cc(-c2n[nH]c3ncccc23)nc(N2CCN[C@@H](CC3CC3)C2)c1 [Compound 162] :: > 6.30
Cc1cc(-c2n[nH]c3ncccc23)nc(N2CCN[C@@H](CC(C)C)C2)c1 [Compound 56] :: > 5.55

[in] Quick one: pKi of CC[C@H]1CN(c2cccc(-c3n[nH]c4ncccc34)n2)C[C@H](CC(C)C)N1 [Compound 12] ?
[out] < 5.70

[in] Quick one: pKi of c1cc(-c2n[nH]c3ncccc23)nc(C2CCNCC2)c1 [Compound 159] ?
[out] > 6.30

---

Measured on: PKC theta kinase (Homo sapiens, UniProt Q04759)
Sequence (Q04759 whole entry): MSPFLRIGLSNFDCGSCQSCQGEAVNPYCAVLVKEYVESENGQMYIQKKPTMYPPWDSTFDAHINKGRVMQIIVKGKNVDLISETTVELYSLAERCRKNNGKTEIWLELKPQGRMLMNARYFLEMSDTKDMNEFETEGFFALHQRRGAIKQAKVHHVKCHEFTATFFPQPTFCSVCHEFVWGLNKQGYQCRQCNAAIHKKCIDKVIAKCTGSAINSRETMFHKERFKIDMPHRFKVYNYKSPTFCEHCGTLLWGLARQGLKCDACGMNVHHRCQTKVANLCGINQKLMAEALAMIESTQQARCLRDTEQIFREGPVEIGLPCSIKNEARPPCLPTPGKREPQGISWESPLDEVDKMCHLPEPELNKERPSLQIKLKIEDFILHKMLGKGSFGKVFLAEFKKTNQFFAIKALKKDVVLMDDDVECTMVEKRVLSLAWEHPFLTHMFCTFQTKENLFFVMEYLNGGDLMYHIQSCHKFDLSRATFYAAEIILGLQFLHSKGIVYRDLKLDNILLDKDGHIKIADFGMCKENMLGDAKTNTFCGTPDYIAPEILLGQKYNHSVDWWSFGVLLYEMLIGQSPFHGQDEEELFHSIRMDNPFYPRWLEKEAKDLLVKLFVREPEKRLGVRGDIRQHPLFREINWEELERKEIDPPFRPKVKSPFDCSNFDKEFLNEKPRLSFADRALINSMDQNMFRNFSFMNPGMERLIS
pKi: −log10 of the molar value.
Recorded metric: pKi

For orientation, consider the following solved cases.
CC(C)(C)C(N)C1CCCN(c2ccc(F)c(-c3n[nH]c4ncccc34)n2)C1 (centres unmarked) [Compound 331] :: > 6.30
COc1cccc(C2CN(c3cccc(-c4n[nH]c5ncccc45)n3)CCN2)c1 (centres unmarked) :: > 6.30

[in] Quick one: pKi of CC(C)CC1(CN)CCCN(c2ccc(C(F)(F)F)c(-c3n[nH]c4ncccc34)n2)C1 (centres unmarked) ?
[out] > 6.30

[in] Quick one: pKi of FC1(c2cccc(-c3n[nH]c4ncccc34)n2)CCNCC1 ?
[out] > 7.30

---

As an illustration, consider measured Ki for compounds on UniProt:Q04759.

NC(c1ccccc1)C1CCCN(c2ccc(F)c(-c3n[nH]c4ncccc34)n2)C1 (stereo not drawn) [Compound 301] :: < 500 nM
CC(C)C[C@H]1CN(c2nc(-c3n[nH]c4ncccc34)ccc2F)CCN1 [Compound 131] :: < 50 nM
CC(C)CC1CN(c2ccc(F)c(-c3n[nH]c4ncccc34)n2)CCC1CC#N (stereo not drawn) [Compound 452] :: < 50 nM

Here's the next entry for you.
[in] Give UniProt:Q04759 Ki for FC(F)(F)c1ccc(N2CCN[C@@H](CC3CC3)C2)nc1-c1n[nH]c2ncccc12 [Compound 165]
[out] < 500 nM

---

Measured on: PKC delta kinase (Homo sapiens, UniProt Q05655)
Test method notes: PKC delta kinase inhibition, coupled-enzyme (NADH absorbance) assay, Ki
Format: biochemical
Condition label: 150 μM ATP, 46 nM PKC delta kinase, 30° C.; read-out: Ki PKC delta
Protocol: An assay buffer solution was prepared which consisted of 100 mM HEPES (pH 7.5), 10 mM MgCl2, 25 mM NaCl, 0.1 mM EDTA and 0.01% Brij. […] To 16 μL of this enzyme buffer, in a 384 well plate, was added 1 μL of VRT stock solution in DMSO. […] Initial rate data was determined from the rate of change of absorbance at 340 nm (corresponding to stoichiometric consumption of NADH) using a Molecular Devices Spectramax plate reader (Sunnyvale, Calif.) over 15 mins at 30° C. […]
Recorded metric: Ki

For orientation, consider the following solved cases.
CC(C)(C(N)C1CCCN(c2ccc(F)c(-c3n[nH]c4ncccc34)n2)C1)C(F)(F)F (stereo not drawn) [Compound 390] :: > 1250 nM
CC(C)(C)C(N)C1CCCN(c2ccc(F)c(-c3n[nH]c4ncccc34)n2)C1 (stereo not drawn) [Compound 330] :: < 10 nM

Here's the next entry for you.
[in] Quick one: Ki of CC(C)CC1CN(c2ccc(F)c(-c3n[nH]c4ncccc34)n2)CCC1CC#N (stereo not drawn) ?
[out] > 1250 nM
